- assay.info: Two-photon ratiometric pH measurement of secretory vesicles (LDCVs) in PC-12 cells
property.measured: pKa

>>> measurement("NCCc1cc2cc(Cl)c(O)cc2oc1=O")
5.93

* * *

- assay.info: pKa from absorption spectra in PBS at different pH
- Assay type: physicochemical
- experimental.context: PBS buffer at different pH values, from absorbance at λabs,max versus pH of PBS; read-out: pKa
Reported pKa values for a set of compounds
property.measured: pKa

>>> measurement("NCCc1cc2c(ccc3ccc(O)cc32)oc1=O [Mini401]")
9.36
>>> measurement("NCCc1cc(=O)oc2cc(O)ccc12 [Mini101]")
7.2
>>> measurement("NCCc1cc(=O)oc2cc(O)c(F)cc12 [Mini103]")
5.95
>>> measurement("NCCc1cc2ccc(O)cc2oc1=O [Mini201]")
7.6
>>> measurement("CC(C)(C)CC(C)(C)c1cc2c(CCN)cc(=O)oc2cc1O [Mini105]")
8.49
>>> measurement("NCCC(=O)c1cc2cc(Cl)c(O)cc2oc1=O [Mini302]")
4.68
>>> measurement("NCCC(=O)c1cc2ccc(O)cc2oc1=O [Mini301]")
7
>>> measurement("CC(C)(C)c1cc2c(CCN)cc(=O)oc2cc1O [Mini104]")
7.94
>>> measurement("NCCc1cc(=O)oc2c(Cc3ccccc3)c(O)c(F)cc12 [Mini106]")
6.09
>>> measurement("NCCc1cc(=O)oc2cc(O)c(Cl)cc12 [Mini102]")
5.8
>>> measurement("NCCc1cc2cc(Cl)c(O)cc2oc1=O [Mini202]")
6.1

* * *

- study.system: VMAT2 (Rattus norvegicus, UniProt Q01827)
- Construct: host or cells: HEK GnTI- (nonglycosylating) cells stably expressing VMAT2
- Sequence (Q01827 whole entry): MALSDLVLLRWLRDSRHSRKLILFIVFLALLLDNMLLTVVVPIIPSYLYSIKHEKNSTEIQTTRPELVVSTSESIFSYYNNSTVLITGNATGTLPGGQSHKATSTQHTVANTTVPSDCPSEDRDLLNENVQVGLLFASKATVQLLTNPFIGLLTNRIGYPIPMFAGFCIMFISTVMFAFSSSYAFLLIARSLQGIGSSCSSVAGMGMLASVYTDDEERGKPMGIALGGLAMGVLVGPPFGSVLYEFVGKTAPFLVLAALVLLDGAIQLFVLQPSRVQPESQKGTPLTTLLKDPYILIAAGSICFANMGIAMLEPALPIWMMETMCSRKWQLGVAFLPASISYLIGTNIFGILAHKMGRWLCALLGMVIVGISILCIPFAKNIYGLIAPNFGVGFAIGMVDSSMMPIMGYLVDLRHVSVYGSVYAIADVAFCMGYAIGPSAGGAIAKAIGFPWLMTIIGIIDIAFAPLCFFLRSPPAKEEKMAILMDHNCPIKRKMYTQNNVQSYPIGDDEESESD
- assay.info: Fluorescent microscopy probe uptake assay in VMAT2/HEK cells
- Type: cell-based
- experimental.context: 20 μM probe, 30 min; VMAT2/HEK vs HEK cells, with or without 1 μM TBZ or reserpine
property.measured: Uptake pattern in screening with VMAT2/HEK and HEK cells

>>> measurement("CC(C)(C)CC(C)(C)c1cc2c(CCN)cc(=O)oc2cc1O")
"non-selective uptake"
>>> measurement("CC(C)(C)c1cc2c(CCN)cc(=O)oc2cc1O")
"non-selective uptake"
>>> measurement("NCCc1cc2c(ccc3ccc(O)cc32)oc1=O")
"non-selective uptake"
>>> measurement("NCCc1cc2cc(Cl)c(O)cc2oc1=O")
"VMAT2 substrates"
>>> measurement("NCCc1cc2ccc(O)cc2oc1=O")
"VMAT2 substrates"
>>> measurement("NCCc1cc(=O)oc2c(Cc3ccccc3)c(O)c(F)cc12")
"VMAT2 substrates"

* * *

- assay.info: log D by shake flask method (n-octanol / PBS pH 7.4)
- Assay type: physicochemical
- experimental.context: n-octanol/PBS, pH 7.4, n-octanol / PBS pH 7.4, 20 μM probe
# if measured logD at 3 days < -0.9: Met  # else: Not met

>>> class_label("NCCc1cc(=O)oc2cc(O)c(F)cc12")
"Met"
>>> class_label("NCCc1cc(=O)oc2cc(O)ccc12")
"Met"
>>> class_label("NCCc1cc(=O)oc2cc(O)c(Cl)cc12")
"Met"
>>> class_label("NCCc1cc2ccc(O)cc2oc1=O")
"Met"
>>> class_label("CC(C)(C)c1cc2c(CCN)cc(=O)oc2cc1O")
"Not met"

* * *

- assay.info: log D by shake flask method (n-octanol / PBS pH 7.4)
- Assay type: physicochemical
- experimental.context: n-octanol / PBS pH 7.4, 20 μM probe
# binarize logD at 3 days: threshold 0.2 inclusive, high side rule met, low side rule not met

>>> class_label("NCCC(=O)c1cc2cc(Cl)c(O)cc2oc1=O")
"rule met"
>>> class_label("NCCC(=O)c1cc2ccc(O)cc2oc1=O")
"rule not met"
>>> class_label("NCCc1cc2c(ccc3ccc(O)cc32)oc1=O")
"rule met"
>>> class_label("CC(C)(C)CC(C)(C)c1cc2c(CCN)cc(=O)oc2cc1O")
"rule met"
>>> class_label("NCCc1cc(=O)oc2c(Cc3ccccc3)c(O)c(F)cc12")
"rule not met"
